Assay protocol: Study 2: single- and multiple-dose pharmacokinetics of the 2 min iv injection
Assay type: in vivo, human
Run conditions: both, human, plasma, iv, 6 mg/kg, CL, Study 2, day 7, 6 mg/kg 2 min iv injection once daily, plasma, arithmetic mean (SD), n = 12; SD
Metric: clearance (mL/min/kg)
Just the number please, in mL/min/kg, no unit attached.

Q: GET /values?readout=clearance&item= CCCCCCCCCC(=O)N[C@@H](Cc1c[nH]c2ccccc12)C(=O)N[C@H](CC(N)=O)C(=O)N[C@@H](CC(=O)O)C(=O)N[C@@H]1C(=O)NCC(=O)N[C@@H](CCCN)C(=O)N[C@@H](CC(=O)O)C(=O)N[C@H](C)C(=O)N[C@@H](CC(=O)O)C(=O)NCC(=O)N[C@H](CO)C(=O)N[C@@H]([C@H](C)CC(=O)O)C(=O)N[C@@H](CC(=O)c2ccccc2N)C(=O)O[C@@H]1C [daptomycin]
Ans: 0.145

Just for reference, paper PMC2692502 is where these values come from.
